target: T1, soluble human TF (human TF 1-219 with the FLAG peptide linked to the C-terminal) (human, UniProt P13726 33-251); test: BIACORE; antibody captured on Protein G chip, soluble TF as analyte; mean ± SD, n = 3
T1 construct: Entry is the whole soluble construct (TF 1-219 followed by FLAG peptide M2); also called soluble TF; shTF
T1 sequence (P13726 other isoform, or with tags, fused parts or gaps limits assumed): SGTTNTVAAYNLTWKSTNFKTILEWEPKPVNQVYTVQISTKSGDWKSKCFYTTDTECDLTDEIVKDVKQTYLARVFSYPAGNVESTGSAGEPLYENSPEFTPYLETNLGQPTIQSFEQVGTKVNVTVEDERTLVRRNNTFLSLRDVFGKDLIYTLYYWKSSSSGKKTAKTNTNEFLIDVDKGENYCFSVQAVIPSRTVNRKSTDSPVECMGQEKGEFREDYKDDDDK
measure: kon (M⁻¹ s⁻¹)
Kindly provide the numeric value in M⁻¹ s⁻¹ only, without the unit symbol.

Data point: H chain chimeric/L chain chimeric antibody (chimeric ATR-5 antibody) (antibody, V domains shown, Mouse ATR-5 V regions joined to human C regions; Both an IgG1 (N5KG1(V)) and an IgG4 (N5KG4P) kappa form were made; also called ch-ch; cha-cha) VH: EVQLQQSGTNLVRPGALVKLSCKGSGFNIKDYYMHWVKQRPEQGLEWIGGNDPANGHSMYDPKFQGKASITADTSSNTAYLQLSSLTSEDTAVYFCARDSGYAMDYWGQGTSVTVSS VL: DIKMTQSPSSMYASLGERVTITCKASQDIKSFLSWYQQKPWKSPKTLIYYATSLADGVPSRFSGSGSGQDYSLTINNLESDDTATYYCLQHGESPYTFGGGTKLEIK ; kon = 465000
